# TESTED SYSTEM: VACV strain WR IFNα/βBP B18 (vaccinia virus strain Western Reserve, UniProt P25213 20-351)
# EXPERIMENTAL PROTOCOL: SPR
Could you please report measured Kd for the items listed next?
Numbers only, in nM.

mIL-28A (ligand) DPVPRATRLPVEAKDCHIAQFKSLSPKELQAFKKAKDAIEKRLLEKDLRCSSHLFPRAWDLKQLQVQERPKALQAEVALTLKVWENMTDSALATILGQPLHTLSHIHSQLQTCTQLQATAEPRSPSRRLSRWLHRLQEAQSKETPGCLEASVTSNLFRLLTRDLKCVANGDQCV ... 13.4
mIFNβ (ligand) INYKQLQLQERTNIRKCQELLEQLNGKINLTYRADFKIPMEMTEKMQKSYTAFAIQEMLQNVFLVFRNNFSSTGWNETIVVRLLDELHQQTVFLKTVLEEKQEERLTWEMSSTALHLKSYYWRVQRYLKLMKYNSYAWMVVRAEIFRNFLIIRRLTRNFQN ... 3.2
hIL-28A (ligand) VPVARLHGALPDARGCHIAQFKSLSPQELQAFKRAKDALEESLLLKDCRCHSRLFPRTWDLRQLQVRERPMALEAELALTLKVLEATADTDPALVDVLDQPLHTLHHILSQFRACIQPQPTAGPRTRGRLHHWLYRLQEAPKKESPGCLEASVTFNLFRLLTRDLNCVASGDLCV ... 14.9

Query :: Report Kd for mIFNα-A (ligand) CDLPHTYNLRNKRALKVLAQMRRLPFLSCLKDRQDFGFPLEKVDNQQIQKAQAIPVLRDLTQQTLNLFTSKASSAAWNATLLDSFCNDLHQQLNDLQTCLMQQVGVQEPPLTQEDALLAVRKYFHRITVYLREKKHSPCAWEVVRAEVWRALSSSVNLLPRLSEEKE
Result :: 0.455
